Hey, just so you know, these numbers are from paper PMC7261929.

assay.target: KDM4A (Homo sapiens, UniProt O75164)
Sequence (O75164 2-1064): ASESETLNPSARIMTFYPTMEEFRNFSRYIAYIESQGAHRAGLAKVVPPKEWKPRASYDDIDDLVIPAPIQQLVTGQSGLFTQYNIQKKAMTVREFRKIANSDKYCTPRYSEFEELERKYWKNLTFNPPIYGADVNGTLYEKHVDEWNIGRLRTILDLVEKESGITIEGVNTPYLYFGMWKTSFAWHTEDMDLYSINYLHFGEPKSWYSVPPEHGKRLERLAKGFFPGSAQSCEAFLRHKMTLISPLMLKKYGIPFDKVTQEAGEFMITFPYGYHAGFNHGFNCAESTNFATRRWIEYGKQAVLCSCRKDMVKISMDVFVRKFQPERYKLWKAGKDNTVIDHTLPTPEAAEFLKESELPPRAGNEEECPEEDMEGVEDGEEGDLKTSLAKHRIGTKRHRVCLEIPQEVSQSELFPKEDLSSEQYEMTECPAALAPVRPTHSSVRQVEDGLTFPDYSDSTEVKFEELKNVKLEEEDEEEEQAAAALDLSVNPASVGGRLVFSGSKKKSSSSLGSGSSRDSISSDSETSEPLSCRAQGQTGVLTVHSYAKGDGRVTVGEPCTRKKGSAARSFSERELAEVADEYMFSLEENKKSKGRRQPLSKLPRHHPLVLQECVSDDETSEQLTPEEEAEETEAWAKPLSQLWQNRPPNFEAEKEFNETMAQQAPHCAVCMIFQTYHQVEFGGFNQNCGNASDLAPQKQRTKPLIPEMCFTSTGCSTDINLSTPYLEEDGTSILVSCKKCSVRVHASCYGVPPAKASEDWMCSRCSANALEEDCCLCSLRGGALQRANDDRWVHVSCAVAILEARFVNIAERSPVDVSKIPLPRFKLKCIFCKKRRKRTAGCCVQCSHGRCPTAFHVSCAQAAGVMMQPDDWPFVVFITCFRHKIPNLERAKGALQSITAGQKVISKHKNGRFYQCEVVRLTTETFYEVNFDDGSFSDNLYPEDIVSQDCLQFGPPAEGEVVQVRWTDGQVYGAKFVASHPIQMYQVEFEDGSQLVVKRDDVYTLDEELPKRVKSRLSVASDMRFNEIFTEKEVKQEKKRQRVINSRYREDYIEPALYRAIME
recorded.metric: IC50 (µM)
Form entry: value (µM) — number only.

Given O=C(O)c1cc(O)c(=O)c2c(O)c(O)cc(-c3ccccc3)c2c1 [9bf] , report its IC50 on KDM4A (Homo sapiens, UniProt O75164). 10.1

====

assay.target: KDM4B (Homo sapiens)
Construct: KDM4B-GST recombinant enzyme
Sequence (O94953 whole entry): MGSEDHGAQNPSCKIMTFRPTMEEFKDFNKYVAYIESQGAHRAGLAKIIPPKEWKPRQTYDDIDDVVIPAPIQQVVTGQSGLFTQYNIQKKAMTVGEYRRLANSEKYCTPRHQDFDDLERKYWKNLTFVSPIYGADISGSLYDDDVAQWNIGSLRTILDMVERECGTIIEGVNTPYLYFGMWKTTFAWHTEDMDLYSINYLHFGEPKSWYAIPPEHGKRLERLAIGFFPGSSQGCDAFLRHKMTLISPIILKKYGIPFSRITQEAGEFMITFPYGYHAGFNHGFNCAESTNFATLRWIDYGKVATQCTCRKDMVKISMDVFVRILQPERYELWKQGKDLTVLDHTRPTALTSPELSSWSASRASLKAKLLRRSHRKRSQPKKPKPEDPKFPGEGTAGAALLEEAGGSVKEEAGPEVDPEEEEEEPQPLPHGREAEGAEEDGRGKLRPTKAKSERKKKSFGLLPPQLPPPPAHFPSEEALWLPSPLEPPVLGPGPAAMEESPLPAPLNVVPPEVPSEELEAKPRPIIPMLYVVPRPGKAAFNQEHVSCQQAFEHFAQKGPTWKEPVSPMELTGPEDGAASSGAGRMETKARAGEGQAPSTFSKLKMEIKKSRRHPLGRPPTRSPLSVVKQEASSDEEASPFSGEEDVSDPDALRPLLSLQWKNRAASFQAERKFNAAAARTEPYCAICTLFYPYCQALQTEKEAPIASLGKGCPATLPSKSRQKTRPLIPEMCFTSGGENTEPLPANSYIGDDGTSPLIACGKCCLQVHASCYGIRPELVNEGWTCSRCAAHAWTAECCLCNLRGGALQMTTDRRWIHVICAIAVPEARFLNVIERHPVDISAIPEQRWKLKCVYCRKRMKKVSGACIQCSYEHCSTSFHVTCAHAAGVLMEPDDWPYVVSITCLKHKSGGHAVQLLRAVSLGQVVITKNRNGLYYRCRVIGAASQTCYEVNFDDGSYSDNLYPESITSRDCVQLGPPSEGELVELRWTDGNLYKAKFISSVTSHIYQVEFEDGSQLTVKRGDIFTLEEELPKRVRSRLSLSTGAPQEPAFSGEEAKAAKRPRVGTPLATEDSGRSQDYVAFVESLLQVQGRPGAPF
assay.comment: fluorescence demethylase enzymatic assay, dose curve
Format: biochemical
recorded.metric: pIC50
Just the number, please; pIC50 means minus log10 of the concentration in mol/L.

Determine its reported pIC50: O=C(O)c1cc(O)c(=O)c2c(O)c(O)cc(-c3ccccc3)c2c1 [9bf] 4.44

====

assay.target: KDM4C (Homo sapiens, UniProt Q9H3R0)
Construct: KDM4C-GST recombinant enzyme
Sequence (Q9H3R0 whole entry): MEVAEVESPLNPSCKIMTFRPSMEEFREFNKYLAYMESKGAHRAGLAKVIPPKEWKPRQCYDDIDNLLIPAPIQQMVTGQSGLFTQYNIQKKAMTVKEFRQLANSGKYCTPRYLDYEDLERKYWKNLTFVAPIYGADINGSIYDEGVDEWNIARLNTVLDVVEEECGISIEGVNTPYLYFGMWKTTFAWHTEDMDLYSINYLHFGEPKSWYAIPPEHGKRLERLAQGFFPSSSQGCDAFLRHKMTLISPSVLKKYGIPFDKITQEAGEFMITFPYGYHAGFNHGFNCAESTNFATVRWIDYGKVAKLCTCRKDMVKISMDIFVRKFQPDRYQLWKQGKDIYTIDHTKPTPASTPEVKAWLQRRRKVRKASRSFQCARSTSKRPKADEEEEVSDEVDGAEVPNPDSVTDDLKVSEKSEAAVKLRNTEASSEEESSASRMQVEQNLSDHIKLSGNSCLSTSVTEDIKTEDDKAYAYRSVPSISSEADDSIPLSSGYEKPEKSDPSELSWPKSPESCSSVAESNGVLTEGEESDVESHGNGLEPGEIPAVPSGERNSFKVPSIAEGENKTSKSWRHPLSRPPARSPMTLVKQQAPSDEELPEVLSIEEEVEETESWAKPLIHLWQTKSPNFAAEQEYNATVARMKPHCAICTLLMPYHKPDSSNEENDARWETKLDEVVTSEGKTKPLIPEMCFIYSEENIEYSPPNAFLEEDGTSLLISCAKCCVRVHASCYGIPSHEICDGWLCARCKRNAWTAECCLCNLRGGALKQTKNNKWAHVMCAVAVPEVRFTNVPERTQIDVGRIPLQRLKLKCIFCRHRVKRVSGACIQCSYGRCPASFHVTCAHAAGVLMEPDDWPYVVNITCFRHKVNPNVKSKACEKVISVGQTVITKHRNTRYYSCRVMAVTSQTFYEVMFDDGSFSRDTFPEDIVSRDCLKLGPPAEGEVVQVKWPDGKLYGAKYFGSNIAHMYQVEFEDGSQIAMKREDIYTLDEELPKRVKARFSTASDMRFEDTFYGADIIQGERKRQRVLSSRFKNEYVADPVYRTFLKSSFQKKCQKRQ
assay.comment: fluorescence demethylase enzymatic assay, dose curve
recorded.metric: IC50 (µM)
The figure you give is taken to be in µM; do not add the unit.

Complete the entry with IC50 for O=C(O)c1cc(O)c(=O)c2c(O)c(O)cc(-c3ccccc3)c2c1 [9bf] 38.9

====

assay.target: KDM4D (Homo sapiens)
Construct: KDM4D-GST recombinant enzyme
Sequence (Q6B0I6 whole entry): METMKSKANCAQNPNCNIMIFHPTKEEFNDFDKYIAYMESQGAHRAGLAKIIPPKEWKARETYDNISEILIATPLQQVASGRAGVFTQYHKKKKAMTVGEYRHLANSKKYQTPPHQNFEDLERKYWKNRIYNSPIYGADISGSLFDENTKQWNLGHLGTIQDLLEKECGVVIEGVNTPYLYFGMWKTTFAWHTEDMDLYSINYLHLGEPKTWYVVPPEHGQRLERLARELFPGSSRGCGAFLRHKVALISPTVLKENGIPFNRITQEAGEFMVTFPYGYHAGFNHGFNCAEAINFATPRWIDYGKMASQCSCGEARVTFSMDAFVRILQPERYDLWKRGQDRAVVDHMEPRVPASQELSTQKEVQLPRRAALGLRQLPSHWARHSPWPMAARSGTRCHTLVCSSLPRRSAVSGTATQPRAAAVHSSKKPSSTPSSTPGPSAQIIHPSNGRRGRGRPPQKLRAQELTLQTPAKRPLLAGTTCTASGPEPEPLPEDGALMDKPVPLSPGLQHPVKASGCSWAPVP
assay.comment: fluorescence demethylase enzymatic assay, dose curve
recorded.metric: IC50

Give recorded IC50. O=C(O)c1cc(O)c(=O)c2c(O)c(O)cc(-c3ccccc3)c2c1 [9bf] 28.5 µM
